# TEST DESCRIPTION: Pharmacokinetics assay in rats, intragastric administration
# Format: in vivo
# PARTICULARS: Sprague-Dawley, rat, plasma, po, male SD rats, 5 mg/kg, read-out: Area Under Curve AUC

COMPOUND STRUCTURE: CC1(C)C(=O)N(c2ccc(C#N)c(C(F)(F)F)c2)C(=S)N1c1ccc(OC[C@@H](O)CO)cc1
AUC / ng·h/mL: 19300
//
COMPOUND STRUCTURE: CC1(C)C(=O)N(c2ccc(C#N)c(C(F)(F)F)c2)C(=S)N1c1ccc(OC[C@H](O)CO)cc1
AUC / ng·h/mL: 13000
